# system_under_test: fusion glycoprotein (F) of the MPV (non-D280N) used in the GFP-based neutralization assay of Table 23 (metapneumovirus)
# method_summary: cell-based or functional assay
recorded_endpoint: MPV IC50 (ng/mL), GFP-based in vitro neutralization

{"binder": "MPH12-v34 (VH-FRGL-S63A/VL-FRGL-D25S) (antibody, V domains shown) VH: QVQLVESGGGLVKPGGSLRLSCAASGFTFSGFYMKWIRQAPGKGLEWVSSISASGSYTNYADAVEGRFTISRDNAKNSLYLQMNSLRAEDTAVYYCARGDSYCGASACHGEFFHKWGQGTLVTVSS VL: QSVLTQPPSVSGAPGQRVTISCTGSSSNIGADFDVHWYQQLPGTAPKLLIYGNINRPSGVPDRFSGSKSGTSASLAITGLQAEDEADYYCQSYDRSLHYVFGTGTKVTVL", "measurement_unit": "ng/mL", "result": 31.9}
{"binder": "MPH12 (antibody, IgG1, V domains shown, also called WT; parental MPH12-wt) VH: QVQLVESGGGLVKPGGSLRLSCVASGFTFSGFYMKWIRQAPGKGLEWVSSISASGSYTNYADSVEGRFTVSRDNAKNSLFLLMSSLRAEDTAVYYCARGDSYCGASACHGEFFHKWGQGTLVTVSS VL: QSVLTQPPSVSGAPGQRVTISCTGSDSNIGADFDVHWYQQLPGTAPKLLIYGNINRPSGVPDRFSGSRSGTSAFLAITRLQAEDEADYYCQSYDRSLHYVFGAGTKVTVL", "measurement_unit": "ng/mL", "result": 24.6}
{"binder": "MPH12-v29 (VH-FRGL-D62E/VL-S26A) (antibody, V domains shown, also called MPH12 VH-FRGL-D62E / MPH12 VL-S26A) VH: QVQLVESGGGLVKPGGSLRLSCAASGFTFSGFYMKWIRQAPGKGLEWVSSISASGSYTNYAESVEGRFTISRDNAKNSLYLQMNSLRAEDTAVYYCARGDSYCGASACHGEFFHKWGQGTLVTVSS VL: QSVLTQPPSVSGAPGQRVTISCTGSDANIGADFDVHWYQQLPGTAPKLLIYGNINRPSGVPDRFSGSRSGTSAFLAITRLQAEDEADYYCQSYDRSLHYVFGAGTKVTVL", "measurement_unit": "ng/mL", "result": 35.2}
{"binder": "MPH12-v17 (VH-FRGL-D62E/VL-D25S) (antibody, V domains shown, also called MPH12 VH-FRGL-D62E / MPH12 VL-D25S) VH: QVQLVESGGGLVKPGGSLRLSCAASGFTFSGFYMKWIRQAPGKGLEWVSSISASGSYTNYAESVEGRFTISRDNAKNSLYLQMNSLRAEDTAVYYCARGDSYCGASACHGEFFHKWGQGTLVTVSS VL: QSVLTQPPSVSGAPGQRVTISCTGSSSNIGADFDVHWYQQLPGTAPKLLIYGNINRPSGVPDRFSGSRSGTSAFLAITRLQAEDEADYYCQSYDRSLHYVFGAGTKVTVL", "measurement_unit": "ng/mL", "result": 30.4}
